Hey, just so you know, these numbers are from paper PMC6736568.

Hs18S ΔCT overview
# Tested on: HCT-8 host cells (Hs18S)
# Assay setup: primary screening at 10 uM, treated vs control
Structures can show the parent of a compound that is named as a salt.
Measure: Hs18S ΔCT

CC1(C)[C@@H](O)CC[C@]2(C)[C@H]3C(=O)C=C4[C@H]5C[C@@](C)(C(=O)O)CC[C@]5(C)CC[C@@]4(C)[C@]3(C)CC[C@@H]12 : -0.01
COc1cc(/C=C/C(=O)O)cc(OC)c1OC : 0.66
C[C@@]12C(=O)OC(=O)[C@]1(C)[C@H]1CC[C@@H]2O1 : 7.39
CC1(C)C(=O)C=C[C@]2(C)[C@H]3CC[C@@]4(C)[C@H](c5ccoc5)OC(=O)[C@H]5O[C@]54[C@]3(C)C=C[C@@H]12 [7-DESACETOXY-6,7-DEHYDROGEDUNIN] : 5.31
COC(=O)C1=CCCN(C)C1 [ARECOLINE HYDROBROMIDE] : -0.47

====

# Test system: HCT-8 host cells (Hs18S)
# Assay setup: human, 41 h, 10 μM
Binary label based on Hs18S ΔCT with cut-off -0.1: below gives yes (1), not below gives no (0).

Cc1cc(O)c2c(c1O)C(=O)c1c(O)cc(C)c(O)c1C2=O : no (0)
O=C(O)c1cccnc1 : no (0)
COC(=O)c1cc(O)c(=O)c2c(O)c(O)ccc2c1 : no (0)
CC(C)=CC1C(CO)C1(C)C (stereo not drawn) : yes (1)
COc1cc2c(cc1OC)-c1cc3ccc(OC)c(OC)c3c[n+]1CC2 [PALMATINE CHLORIDE] : no (0)
COc1cc2c(cc1OC)C(=O)OC2 : no (0)
CO[C@H]1C[C@H](O[C@H]2[C@H](C)[C@@H](O[C@@H]3O[C@H](C)C[C@H](N(C)C)[C@H]3O)[C@@H](C)C[C@@]3(CO3)C(=O)[C@H](C)[C@@H](O)[C@@H](C)[C@@H](C)OC(=O)[C@@H]2C)O[C@@H](C)[C@@H]1O [OLEANDOMYCIN PHOSPHATE] : no (0)
COc1cc(O)c(C(C)=O)c(OC)c1 : no (0)
O=C(O)CCCCCCCC(=O)O : no (0)
COc1ccc2cc1Oc1ccc(cc1)C[C@H]1c3cc(c(OC)cc3CCN1C)Oc1c(OC)c(OC)cc3c1[C@H](C2)N(C)CC3 : no (0)
COc1cccc(O)c1O : no (0)
COc1ccc2c(c1)OCc1c-2oc2cc(OC)ccc12 [DEHYDROVARIABILIN] : yes (1)
Cc1cc(OC(=O)c2c(C)cc(O)cc2O)cc(O)c1C(=O)O : no (0)
CC12CCCC(O)(C1)C1CC(C)(C)C1CC2 (stereo not drawn) : no (0)
Oc1ccc2c(c1)OC[C@]1(O)Cc3cc(O)c(O)cc3[C@H]21 : yes (1)
Nc1ccn([C@@H]2O[C@H](CO)[C@@H](O)[C@H]2O)c(=O)n1 : yes (1)
COc1ccc(-c2cc(=O)c3c(O)cc(O[C@@H]4O[C@H](CO[C@@H]5O[C@@H](C)[C@H](O)[C@@H](O)[C@H]5O)[C@@H](O)[C@H](O)[C@H]4O)cc3o2)cc1O : yes (1)
COc1c2c(cc3c1OCO3)CC[N+](C)=C2 [COTARNINE CHLORIDE] : yes (1)
CC1(C)CC2C1CCC1(C)OC2(C)CCC1O (stereo not drawn) : no (0)
COc1c(O)cccc1O : yes (1)
C=CCc1ccc(O)c(OC)c1 : yes (1)
CC(C)=CCC[C@]1(C)C=Cc2c(O)c3c(c(CC=C(C)C)c2O1)O[C@]12C(=C[C@@H]4C[C@H]1C(C)(C)O[C@@]2(C/C=C(/C)C(=O)O)C4=O)C3=O : no (0)
CC1=C(/C=C/C(C)=C/C=C/C(C)=C/C=C/C=C(C)/C=C/C=C(C)/C=C/C(=O)[C@]2(C)C[C@@H](O)CC2(C)C)C(C)(C)C[C@H](O)C1 : no (0)

====

# Assay procedure: in vitro
# Assay setup: human
Structures can show the parent of a compound that is named as a salt.
cytotoxicity at 41 h, 10 µM overview
Measure: cytotoxicity at 41 h, 10 µM (%)

COc1ccc2c(c1)OC/C(=C\c1ccc(OC)c(O)c1)C2=O [SAPPANONE A DIMETHYL ETHER] : 11.8
C=CCCCCCCCCCCCC(O)CC(O)COC(C)=O (stereo not shown) [AVOCATIN A] : -0.1
CC12CCC3C(CC3(C)C)C(C)(CCC1=O)O2 (stereo not shown) [3,7-EPOXYCARYOPHYLLAN-6-ONE] : 17
Oc1ccc2c(c1)OC[C@]1(O)Cc3cc(O)c(O)cc3[C@H]21 [BRAZILIN] : -8.9
O=c1cc[nH]c(=O)[nH]1 [URACIL] : -21.4
Cc1cc(O)c2c(c1)C(=O)c1cc(O)cc(O)c1C2=O [EMODIN] : -3
CCCCCC1C(=O)CCC1CC(=O)OC (stereo not shown) [DIHYDROJASMONIC ACID, METHYL ESTER] : -4
COc1cc2c(cc1OC)-c1cc3ccc(OC)c(OC)c3c[n+]1CC2 [PALMATINE CHLORIDE] : -6.1
O=c1cc(-c2ccccc2)oc2cc(O)c(O)c(O)c12 [Baicalein] : 6.7
CC(C)/C(O)=C1/C(=O)O[C@@H](c2ccoc2)[C@]2(C)C(O)[C@@H](O)[C@@]34OC5(C)OC67CC(C)(C(O)[C@]6(O)[C@@H](O)[C@]3(O5)C12)[C@H](CC(=O)O)[C@]74C (stereo partly shown) [HYDROLYSIS PRODUCT OF BUSSEIN] : -60.9
C=C1CC[C@@H]2[C@](C)(CO)[C@H](O)CC[C@@]2(C)[C@@H]1C/C=C1/C(=O)OC[C@H]1O [ANDROGRAPHOLIDE] : 5.3
COC(=O)C[C@H]1C(C)(C)[C@@H](OC(C)=O)[C@@H]2CC3C4CC(=O)O[C@@H](c5ccoc5)[C@]4(C)CCC3[C@@]1(C)C2=O (stereo partly shown) [DIHYDROFISSINOLIDE] : 5.3
CC(=O)OCC(=O)[C@H]1CC[C@H]2[C@@H]3CC=C4C[C@@H](O)CC[C@]4(C)[C@H]3CC[C@]12C [21-ACETOXYPREGNENOLONE] : 6.5
C[C@H]1[C@H]2CC[C@H]3[C@@H]4CC=C5C[C@@H](N(C)C)CC[C@]5(C)[C@H]4CC[C@]23CN1C [CONESSINE] : -10.4
CC(=O)O[C@H]1C[C@@]2(C)[C@@H](C[C@@H](O)[C@H]3[C@@]4(C)CC[C@@H](O)[C@@H](C)[C@@H]4CC[C@@]32C)/C1=C(\CCC=C(C)C)C(=O)O [FUSIDIC ACID] : -23.2
O=C(O[C@@H]1Cc2c(O)cc(O)cc2O[C@@H]1c1cc(O)c(=O)c2c(O)c(O)cc([C@H]3Oc4cc(O)cc(O)c4C[C@H]3O)c2c1)c1cc(O)c(O)c(O)c1 [THEAFLAVIN MONOGALLATES] : -7.4
CC(C)=CCC/C(C)=C\CO [NEROL] : 25.8
COc1ccc2cc1Oc1ccc(cc1)C[C@H]1c3cc(c(OC)cc3CCN1C)Oc1c(OC)c(OC)cc3c1[C@H](C2)N(C)CC3 [TETRANDRINE] : -2.5
CN[C@@H]1[C@H](O[C@H]2[C@H](O[C@H]3[C@H](O)[C@@H](O)[C@H](NC(=N)N)[C@@H](O)[C@@H]3NC(=N)N)O[C@@H](C)[C@]2(O)CO)O[C@@H](CO)[C@H](O)[C@H]1O [DIHYDROSTREPTOMYCIN SULFATE] : 3.4
O=c1[nH]cnc2nc[nH]c12 [HYPOXANTHINE] : 14.3
COC(=O)CC1C(C)(C)C(OC(C)=O)[C@@H]2[C@@H](OC(C)=O)[C@]34O[C@@]2(O)[C@]1(C)C3CC[C@]1(C)C4=CC(=O)O[C@H]1c1ccoc1 (stereo partly shown) [XYLOCARPUS A] : -39.2
Cc1ccc(C(C)C)cc2c(C)ccc1-2 [GUAIAZULENE] : -27

====

# Assay procedure: in vitro
Measure: cytotoxicity at 10 µM (%)

COc1cc2c(cc1OC)C1(O)C(=O)c3ccc(O)c(C(=O)O)c3OC1CO2 (stereo not drawn) : 4.1
COC(=O)[C@@H]1C[C@H](OC(C)=O)C(=O)[C@H]2[C@@]1(C)CC[C@H]1C(=O)O[C@H](c3ccoc3)C[C@]21C [[…]] : 30.5
CN[C@@H]1[C@@H](O)[C@@H](O[C@@H]2[C@@H](O)[C@H](O[C@H]3O[C@H]([C@@H](C)O)[C@@H](O)[C@H](O)[C@H]3N)[C@@H](N)C[C@H]2N)OC[C@]1(C)O : 4.9
COc1ccc(C(=O)O)cc1OC : -6.7
C=C(C)[C@@H]1[C@H]2OC(=O)[C@@H]1[C@]1(O)C[C@H]3O[C@]34C(=O)O[C@H]2[C@]14C : -75.3
CC(=O)Oc1cc(OC(C)=O)c2c(c1)O[C@H](c1ccc(OC(C)=O)c(OC(C)=O)c1)[C@@H](OC(C)=O)C2 [CATECHIN PENTAACETATE] : -19.6
